Reported melting point by item:
assay-metric: melting point

molecule=COc1ccc(NC(=O)Nc2ccccc2CCO)c(OC)c1 assay_metric="melting point" result="189 to 190 °C"
molecule=Cc1ccccc1CNC(=O)Nc1ccccc1CCO assay_metric="melting point" result="186 to 188 °C"
molecule=O=C(Nc1ccccc1CCO)Nc1ccccc1C(F)(F)F assay_metric="melting point" result="180 to 182 °C"
molecule=O=C(Nc1ccccc1CCO)Nc1ccccc1Oc1ccccc1 assay_metric="melting point" result="190 to 191 °C"
molecule=O=C(Nc1ccc([N+](=O)[O-])c(C(F)(F)F)c1)Nc1ccccc1CCO assay_metric="melting point" result="149 to 150 °C"
molecule=O=C(Nc1cccc(Oc2ccccc2)c1)Nc1ccccc1CCO assay_metric="melting point" result="145 to 146 °C"
molecule=Cc1ccc(-c2cccc(NC(=O)Nc3ccccc3CCO)c2)cc1 assay_metric="melting point" result="178 °C"
molecule=O=C(NCc1ccccc1F)Nc1ccccc1CCO assay_metric="melting point" result="141 to 143 °C"
molecule=COc1cc(CNC(=O)Nc2ccc(Cl)c(Cl)c2)ccc1O assay_metric="melting point" result="207 °C"
molecule=O=C(Nc1cccc(OCc2ccccc2)c1)Nc1ccccc1CCO assay_metric="melting point" result="146 to 148 °C"
molecule=O=C(Nc1cccc(-c2cc(F)ccc2F)c1)Nc1ccccc1CCO assay_metric="melting point" result="150 °C"
molecule=COc1cccc(NC(=O)Nc2ccccc2CCO)c1 assay_metric="melting point" result="169 °C"
molecule=Cc1cccc(NC(=O)NCc2ccc(C(F)(F)F)cc2)c1CCO assay_metric="melting point" result="213 °C"
molecule=COc1cccc(-c2cccc(NC(=O)Nc3ccccc3CCO)c2)c1 assay_metric="melting point" result="163 °C"
molecule=O=C(Nc1ccc(C(F)(F)F)cc1)Nc1ccccc1CCO assay_metric="melting point" result="178 to 180 °C"
molecule=O=C(Nc1cccc(-c2ccc(F)c(Cl)c2)c1)Nc1ccccc1CCO assay_metric="melting point" result="176 °C"
molecule=O=C(Nc1cccc(C(F)(F)F)c1)Nc1ccccc1CCO assay_metric="melting point" result="173 to 175 °C"
molecule=O=C(NCc1cccc(F)c1)Nc1ccccc1CCO assay_metric="melting point" result="160 to 162 °C"
molecule="COc1ccc(Cl)cc1-c1cccc(NC(=O)Nc2ccccc2CCO)c1 [Example 227]" assay_metric="melting point" result="141 to 143 °C"
molecule=O=C(Nc1ccc(Oc2ccccc2)cc1)Nc1ccccc1CCO assay_metric="melting point" result="133 to 135 °C"
molecule=O=C(Nc1cccc(-c2ccc(Cl)c(Cl)c2)c1)Nc1ccccc1CCO assay_metric="melting point" result="180 °C"
molecule=Cc1ccc(NC(=O)Nc2ccccc2CCO)c(C)c1 assay_metric="melting point" result="181 °C"
molecule=O=C(Nc1ccccc1CCO)Nc1cccc2c1Cc1ccccc1-2 assay_metric="melting point" result="182 to 183 °C"
molecule=O=C(Nc1ccc(Cl)c(-c2ccccc2)c1)Nc1ccccc1CCO assay_metric="melting point" result="185 °C"
molecule=O=C(Nc1ccc2ccccc2c1)Nc1ccccc1CCO assay_metric="melting point" result="195 to 197 °C"
molecule=COc1ccc(-c2cccc(NC(=O)Nc3ccccc3CCO)c2)cc1 assay_metric="melting point" result="166 °C"
molecule=CCn1c2ccccc2c2cc(NC(=O)Nc3ccccc3CCO)ccc21 assay_metric="melting point" result="224 to 226 °C"
molecule=CC(C)c1ccc(NC(=O)Nc2ccccc2CCO)cc1 assay_metric="melting point" result="149 to 150 °C"
molecule=COc1cc(NC(=O)Nc2ccccc2CCO)cc(C(F)(F)F)c1 assay_metric="melting point" result="161 to 162 °C"
molecule=O=C(Nc1ccccc1CCO)Nc1cccc(F)c1F assay_metric="melting point" result="159 to 161 °C"
molecule=O=C(Nc1cccc(-c2ccccc2)c1)Nc1ccccc1CCO assay_metric="melting point" result="196 to 198 °C"
molecule=CSc1ccc(NC(=O)Nc2ccccc2CCO)cc1 assay_metric="melting point" result="176 to 177 °C"
molecule=COc1cc(CNC(=O)Nc2ccc(F)cc2)ccc1O assay_metric="melting point" result="211 to 212 °C"
molecule=COc1cc(CNC(=O)Nc2c(C)cc(C)cc2C)ccc1O assay_metric="melting point" result="217 °C"
molecule=O=C(Nc1ccccc1CCO)Nc1ccccc1[N+](=O)[O-] assay_metric="melting point" result="112 to 114 °C"
molecule=Cc1ccccc1Oc1ccccc1NC(=O)Nc1ccccc1CCO assay_metric="melting point" result="170 to 172 °C"
molecule=COc1ccc(OC)c(-c2cccc(NC(=O)Nc3ccccc3CCO)c2)c1 assay_metric="melting point" result="170 °C"

###

Reported IC50 by item:
experimental-target: human VR1 (Homo sapiens)
Construct: expressed in transfected cells
Sequence (Q8NER1 whole entry): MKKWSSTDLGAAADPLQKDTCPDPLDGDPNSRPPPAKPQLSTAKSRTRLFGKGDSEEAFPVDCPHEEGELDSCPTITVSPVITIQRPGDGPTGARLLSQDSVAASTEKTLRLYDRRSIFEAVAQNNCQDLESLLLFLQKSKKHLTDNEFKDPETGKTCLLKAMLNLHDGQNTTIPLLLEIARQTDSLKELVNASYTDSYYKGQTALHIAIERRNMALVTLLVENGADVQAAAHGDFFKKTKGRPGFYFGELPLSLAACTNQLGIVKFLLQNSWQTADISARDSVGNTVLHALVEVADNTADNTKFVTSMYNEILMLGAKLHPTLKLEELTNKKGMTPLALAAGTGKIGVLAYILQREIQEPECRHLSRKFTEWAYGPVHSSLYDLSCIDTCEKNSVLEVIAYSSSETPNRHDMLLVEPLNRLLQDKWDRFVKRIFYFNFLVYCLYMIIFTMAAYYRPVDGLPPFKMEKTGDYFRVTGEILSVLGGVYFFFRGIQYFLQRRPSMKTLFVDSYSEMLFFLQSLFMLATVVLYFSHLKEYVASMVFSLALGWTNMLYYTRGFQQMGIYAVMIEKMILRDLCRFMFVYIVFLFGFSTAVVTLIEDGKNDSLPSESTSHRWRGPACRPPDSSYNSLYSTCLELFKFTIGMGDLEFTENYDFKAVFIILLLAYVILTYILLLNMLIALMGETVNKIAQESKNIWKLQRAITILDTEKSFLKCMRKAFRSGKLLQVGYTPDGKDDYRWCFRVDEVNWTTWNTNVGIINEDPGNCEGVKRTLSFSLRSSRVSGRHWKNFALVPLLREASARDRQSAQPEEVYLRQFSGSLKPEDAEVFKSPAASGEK
protocol-text: Capsaicin-induced Ca2+ influx in the human VR1-transfected CHO cell line (Assay 1)
Type: cell-based
measurement-context: human VR1-CHOluc9aeq cells, 10 nM capsaicin; compound purity about 40 to 90%; read-out: hVR1 class
assay-metric: IC50

chem_smiles=O=C(NCc1ccc(Br)cc1)Nc1ccccc1CCO result="100 to 500 nM"
chem_smiles=O=C(Nc1cccc(-c2ccccc2Cl)c1)Nc1ccccc1CCO result="< 100 nM"
chem_smiles=CSc1ccc(-c2cccc(NC(=O)Nc3ccccc3CCO)c2)cc1 result="< 100 nM"
chem_smiles=O=C(Nc1ccc([N+](=O)[O-])c(C(F)(F)F)c1)Nc1ccccc1CCO result="100 to 500 nM"
chem_smiles=O=C(Nc1cccc(-c2ccc(OC(F)(F)F)cc2)c1)Nc1ccccc1CCO result="< 100 nM"
chem_smiles=CS(=O)(=O)Nc1ccc2c(c1)CN(C(=O)Nc1ccc(Br)cc1)CC2 result="500 to 1000 nM"
chem_smiles=Cc1cccc(NC(=O)Nc2ccccc2CCO)c1 result="500 to 1000 nM"
chem_smiles=COc1cc2c(cc1OC)CN(C(=O)Nc1ccc(F)cc1)CC2 result="500 to 1000 nM"
chem_smiles=CSc1cccc(NC(=O)NCc2ccc3c(c2)OCO3)c1 result="500 to 1000 nM"
chem_smiles=O=C(Nc1cccc(-c2ccccc2F)c1)Nc1ccccc1CCO result="< 100 nM"
chem_smiles=O=C(Nc1ccccc1CCO)Nc1c(Cl)cccc1Cl result="500 to 1000 nM"
chem_smiles=Cc1cccc(NC(=O)Nc2ccc(Cl)c(C(F)(F)F)c2)c1CCO result="< 100 nM"
chem_smiles=CCn1c2ccccc2c2cc(NC(=O)Nc3ccccc3CCO)ccc21 result="< 100 nM"
chem_smiles=CCOc1ccccc1NC(=O)Nc1ccccc1CCO result="500 to 1000 nM"
chem_smiles=COc1cc(CNC(=O)Nc2cc(C(F)(F)F)ccc2Cl)ccc1O result="< 100 nM"

###

assay-metric: melting point

compound="CCOc1ccccc1NC(=O)Nc1ccccc1CCO [Example 146]" result="112 to 114 °C (dec.)"
compound="O=C(Nc1cccc(Cl)c1)Nc1ccccc1CCO [Example 105]" result="188 to 190 °C"
compound="O=C(Nc1ccc(F)c(C(F)(F)F)c1)Nc1ccccc1CCO [Example 184]" result="158 to 161 °C (dec.)"
compound="COc1cc(-c2cccc(NC(=O)Nc3ccccc3CCO)c2)cc(OC)c1OC [Example 237]" result="81 to 83 °C"
compound="O=C(Nc1ccc(Nc2ccccc2)cc1)Nc1ccccc1CCO [Example 159]" result="150 to 151 °C"

###

Output Met for melting point not less than 200 °C; output Not met otherwise.

chem_smiles=Cc1cccc(C)c1NC(=O)Nc1ccccc1CCO class_assignment=Met
chem_smiles=O=C(Nc1ccc([N+](=O)[O-])cc1)Nc1ccccc1CCO class_assignment="Not met"
chem_smiles=O=C(Nc1ccc(-c2ccccc2)c(Cl)c1)Nc1ccccc1CCO class_assignment="Not met"
chem_smiles=COc1cc(CNC(=O)Nc2ccccc2[N+](=O)[O-])ccc1O class_assignment="Not met"
chem_smiles=O=C(Nc1cccc(-c2cccc(OC(F)(F)F)c2)c1)Nc1ccccc1CCO class_assignment="Not met"
chem_smiles=COc1cc(CNC(=O)Nc2c(C)cccc2C)ccc1O class_assignment=Met
chem_smiles=COc1ccc(NC(=O)Nc2ccccc2CCO)cc1 class_assignment="Not met"
chem_smiles=COc1cc(CNC(=O)Nc2ccccc2OC)ccc1O class_assignment="Not met"
chem_smiles=O=C(Nc1cccc(-c2ccc(Cl)c(F)c2)c1)Nc1ccccc1CCO class_assignment="Not met"
chem_smiles=COc1ccccc1NC(=O)Nc1ccccc1CCO class_assignment="Not met"
chem_smiles=O=C(Nc1cccc(-c2ccoc2)c1)Nc1ccccc1CCO class_assignment="Not met"
chem_smiles=O=C(Nc1cccc(F)c1)Nc1ccccc1CCO class_assignment="Not met"

###

experimental-target: human VR1 (Homo sapiens)
Construct: expressed in transfected cells
protocol-text: Capsaicin-induced Ca2+ influx in the human VR1-transfected CHO cell line (Assay 1)
Format: cell-based
measurement-context: human VR1-CHOluc9aeq cells, 10 nM capsaicin; compound purity about 40 to 90%; read-out: hVR1 class
Reported IC50 by item:
assay-metric: IC50

molecule="COc1cccc(NC(=O)NCc2cccc(O)c2)c1 [Example 30]" experimental_target="human VR1 (Homo sapiens)" result="0.5 to 1 µM"
molecule="COc1cccc(NC(=O)Nc2ccccc2CCO)c1 [Example 135]" experimental_target="human VR1 (Homo sapiens)" result="0.5 to 1 µM"
molecule="Cc1ccc2ccccc2c1NC(=O)Nc1ccccc1CCO [Example 164]" experimental_target="human VR1 (Homo sapiens)" result="0.5 to 1 µM"
molecule="O=C(Nc1cc(F)cc(F)c1)Nc1ccccc1CCO [Example 180]" experimental_target="human VR1 (Homo sapiens)" result="0.1 to 0.5 µM"
molecule="CSc1cccc(NC(=O)NCc2cccc(Cl)c2)c1 [Example 37]" experimental_target="human VR1 (Homo sapiens)" result="0.5 to 1 µM"
molecule="Cc1ccc(NC(=O)Nc2ccccc2CCO)cc1Cl [Example 148]" experimental_target="human VR1 (Homo sapiens)" result="0.5 to 1 µM"
molecule="COc1ccc(COc2cc(CNC(=O)Nc3ccccc3)ccc2OC)cc1 [Example 6]" experimental_target="human VR1 (Homo sapiens)" result="0.5 to 1 µM"
molecule="CSc1cccc(NC(=O)NCc2ccc(F)c(F)c2)c1 [Example 49]" experimental_target="human VR1 (Homo sapiens)" result="0.5 to 1 µM"
molecule="O=C(Nc1cccc(-c2cccc([N+](=O)[O-])c2)c1)Nc1ccccc1CCO [Example 234]" experimental_target="human VR1 (Homo sapiens)" result="< 0.1 µM"
molecule="O=C(Nc1cccc(-c2ccoc2)c1)Nc1ccccc1CCO [Example 247]" experimental_target="human VR1 (Homo sapiens)" result="< 0.1 µM"
molecule="COc1cc(CNC(=O)Nc2c(C)cccc2C)ccc1O [Example 60]" experimental_target="human VR1 (Homo sapiens)" result="0.5 to 1 µM"
molecule="COc1cccc(-c2cccc(NC(=O)Nc3ccccc3CCO)c2)c1 [Example 242]" experimental_target="human VR1 (Homo sapiens)" result="< 0.1 µM"
molecule="O=C(NCc1ccccc1)Nc1ccccc1CCO [Example 153]" experimental_target="human VR1 (Homo sapiens)" result="0.5 to 1 µM"
molecule="O=C(NCc1cccc(O)c1)Nc1ccccc1 [Example 28]" experimental_target="human VR1 (Homo sapiens)" result="0.5 to 1 µM"
molecule="O=C(Nc1cccc(-c2ccc(F)c(Cl)c2)c1)Nc1ccccc1CCO [Example 215]" experimental_target="human VR1 (Homo sapiens)" result="< 0.1 µM"
molecule="Cc1ccc2cc(NC(=O)Nc3ccccc3CCO)ccc2n1 [Example 165]" experimental_target="human VR1 (Homo sapiens)" result="0.5 to 1 µM"
molecule="O=C(Nc1cc(Cl)cc(Cl)c1)Nc1ccccc1CCO [Example 109]" experimental_target="human VR1 (Homo sapiens)" result="0.1 to 0.5 µM"
molecule="COc1cc(CNC(=O)Nc2ccc(F)cc2)ccc1O [Example 56]" experimental_target="human VR1 (Homo sapiens)" result="0.5 to 1 µM"
molecule="COc1ccc(CNC(=O)Nc2ccccc2)cc1O [Example 36]" experimental_target="human VR1 (Homo sapiens)" result="0.5 to 1 µM"
molecule="CSc1cccc(NC(=O)NCc2cccc(O)c2)c1 [Example 29]" experimental_target="human VR1 (Homo sapiens)" result="0.5 to 1 µM"
molecule="O=C(NCc1ccc2c(c1)OCO2)Nc1ccc(F)cc1 [Example 19]" experimental_target="human VR1 (Homo sapiens)" result="0.5 to 1 µM"
molecule="CC(C)(C)c1ccc(C(C)(C)C)c(NC(=O)Nc2ccccc2CCO)c1 [Example 177]" experimental_target="human VR1 (Homo sapiens)" result="0.5 to 1 µM"

Data origin: patent US20050154230A1
